Please respond with reported Viability of tumor cells (% viability), Human multiple myeloma NCI-H929 cells for every item in the list.
- Tested on: human multiple myeloma NCI-H929 cells
- TEST PROTOCOL: Growth inhibition test on human multiple myeloma NCI-H929 cells (WST-1, % viability)
- Format: cell-based
- APPLIED CONDITIONS: test compound 10 μmol/L, cells without test compound = 100%
Answers are plain numbers, in %.

# annotated cases, reported Viability of tumor cells (% viability), Human multiple myeloma NCI-H929 cells shown
COMPOUND: CCc1c(O)cc(O)c(C(=O)c2ccc(OC)c(OC)c2)c1CC(=O)N(CCO)CCOC [Compound 56]
MEASURED RESULT: 0

COMPOUND: CCc1c(O)cc(O)c(C(=O)c2ccc(OC)cc2)c1CC(=O)N(CCO)CCO [Compound 13]
MEASURED RESULT: 0

COMPOUND: CCc1c(O)cc(O)c(C(=O)c2ccc(C(F)(F)F)cc2)c1CC(=O)N(CCO)CCOC [Compound 144]
MEASURED RESULT: 0

COMPOUND: CCc1c(O)cc(O)c(C(=O)c2ccc(OC)c(OC)c2)c1CC(=O)N1CCN(c2ccccc2)CC1 [Compound 41]
MEASURED RESULT: 0

COMPOUND: CCc1c(O)cc(O)c(C(=O)c2ccc(S(C)(=O)=O)cc2)c1CC(=O)N(CCOC)CCOC [Compound 107]
MEASURED RESULT: 0

Dear colleague, could you please provide Viability of tumor cells (% viability), Human multiple myeloma NCI-H929 cells for the compounds listed below?
1. CCc1c(O)cc(O)c(C(=O)c2ccc(OC)cc2)c1CC(=O)N1CCN(c2ncccn2)CC1 [Compound 32]
2. CCc1c(O)cc(O)c(C(=O)c2ccc(OC)cc2)c1CC(=O)N(CCO)Cc1ccco1 [Compound 69]
3. CCc1c(O)cc(O)c(C(=O)c2ccc(OC)cc2)c1CC(=O)N1CCC(CO)CC1 [Compound 61]
4. CCc1c(O)cc(O)c(C(=O)c2ccc(O)c(OC)c2)c1CC(=O)N(CCOC)CCOC [Compound 106]
5. CCc1c(O)cc(O)c(C(=O)c2ccc(OC)cc2)c1CC(=O)N1CCN(c2ccccc2C#N)CC1 [Compound 17]
6. CCc1c(O)cc(O)c(C(=O)c2ccc(OC)cc2)c1CC(=O)N1CCc2cc(OC)c(OC)cc2C1 [Compound 38]

A:
[0, 0, 0, 0, 0, 0]

Dear colleague, could you please provide Viability of tumor cells (% viability), Human multiple myeloma NCI-H929 cells for the compounds listed below?
1. CCc1c(O)cc(O)c(C(=O)c2ccsc2)c1CC(=O)N(CCO)CCOC [Compound 151]
2. CCc1c(O)cc(O)c(C(=O)c2ccc(OC)cc2)c1CC(=O)N(C)Cc1cccnc1 [Compound 16]

A:
1. 0
2. 0

Dear colleague, could you please provide Viability of tumor cells (% viability), Human multiple myeloma NCI-H929 cells for the compounds listed below?
1. CCc1c(O)cc(O)c(C(=O)c2ccc(OC(F)(F)F)cc2)c1CC(=O)N(CCO)CCOC [Compound 88]
2. CCc1c(O)cc(O)c(C(=O)c2ccc(OC(F)F)cc2)c1CC(=O)N(CCO)CCOC [Compound 91]

A:
1: 0; 2: 0

Q: Any idea what Viability of tumor cells (% viability), Human multiple myeloma NCI-H929 cells was measured for CCc1c(O)cc(O)c(C(=O)c2ccc(OC(C)C)cc2)c1CC(=O)N(CCOC)CCN1CCOCC1 [Compound 134] ?
A: 0

###

- Test system: human mammary cancer BT-474 cells
- TEST PROTOCOL: Growth inhibition test on human mammary cancer BT-474 cells (WST-1, % viability)
- Assay type: cell-based
- APPLIED CONDITIONS: test compound 10 μmol/L, cells without test compound = 100%
QUANTITY KIND: Viability of tumor cells (% viability), Human mammary cancer BT-474 cells
Please don't drop the unit; write it after the number.

# annotated cases, reported Viability of tumor cells (% viability), Human mammary cancer BT-474 cells shown
LINE NOTATION: CCc1c(O)cc(O)c(C(=O)c2ccc(OC)c(OC)c2)c1CC(=O)N1CCN(c2ccccc2)CC1
TARGET OR SYSTEM: human mammary cancer BT-474 cells
MEASURED RESULT: 14%

LINE NOTATION: CCc1c(O)cc(O)c(C(=O)c2ccc(OC)cc2)c1CC(=O)N1CCN(c2ccccc2C#N)CC1
TARGET OR SYSTEM: human mammary cancer BT-474 cells
MEASURED RESULT: 10%

LINE NOTATION: CCc1c(O)cc(O)c(C(=O)c2ccc(OC)cc2)c1CC(=O)N1CCC(CO)CC1
TARGET OR SYSTEM: human mammary cancer BT-474 cells
MEASURED RESULT: 12%

LINE NOTATION: CCc1c(O)cc(O)c(C(=O)c2ccc(OC(C)C)cc2)c1CC(=O)N(CCOC)CCN1CCOCC1
TARGET OR SYSTEM: human mammary cancer BT-474 cells
MEASURED RESULT: 13%

LINE NOTATION: CCc1c(O)cc(O)c(C(=O)c2ccc(OC(F)F)cc2)c1CC(=O)N(CCO)CCOC
TARGET OR SYSTEM: human mammary cancer BT-474 cells
MEASURED RESULT: 13%

Dear colleague, could you please provide Viability of tumor cells (% viability), Human mammary cancer BT-474 cells for the molecules listed below?
1. CCc1c(O)cc(O)c(C(=O)c2ccc(O)c(OC)c2)c1CC(=O)N(CCOC)CCOC
2. CCc1c(O)cc(O)c(C(=O)c2ccc(OC)cc2)c1CC(=O)N(C)Cc1cccnc1
3. CCc1c(O)cc(O)c(C(=O)c2ccc(OCCN3CCOCC3)c(OC)c2)c1CC(=O)N(CCOC)CCOC.Cl

A:
1: 12%; 2: 12%; 3: 14%

###

Please respond with reported Viability of tumor cells (% viability), Human chronic lymphocytic leukemia MEC-1 cells for every item in the list.
- Tested on: human chronic lymphocytic leukemia-derived MEC-1 cells
- TEST PROTOCOL: Growth inhibition test on human chronic lymphocytic leukemia-derived MEC-1 cells (WST-1, % viability)
- Format: cell-based
- APPLIED CONDITIONS: test compound 10 μmol/L, 72 hours, cells without test compound = 100%
Numbers only, in %.

# annotated cases, reported Viability of tumor cells (% viability), Human chronic lymphocytic leukemia MEC-1 cells shown
LINE NOTATION: CCc1c(O)cc(O)c(C(=O)c2ccc(OC)cc2)c1CC(=O)N(C)Cc1cccnc1
TARGET OR SYSTEM: human chronic lymphocytic leukemia-derived MEC-1 cells
MEASURED RESULT: 3

LINE NOTATION: CCc1c(O)cc(O)c(C(=O)c2ccc(OCCN3CCOCC3)c(OC)c2)c1CC(=O)N(CCOC)CCOC
TARGET OR SYSTEM: human chronic lymphocytic leukemia-derived MEC-1 cells
MEASURED RESULT: 5

LINE NOTATION: CCc1c(O)cc(O)c(C(=O)c2ccc(SC)cc2)c1CC(=O)N(CCO)CCOC
TARGET OR SYSTEM: human chronic lymphocytic leukemia-derived MEC-1 cells
MEASURED RESULT: 4

Now, please, on to the next compound.
Q: Any idea what Viability of tumor cells (% viability), Human chronic lymphocytic leukemia MEC-1 cells was measured for CCc1c(O)cc(O)c(C(=O)c2ccc(S(C)(=O)=O)cc2)c1CC(=O)N(CCOC)CCOC ?
A: 5

###

Please respond with reported Viability of tumor cells (% viability), Human renal cancer OS-RC-2 cells for every item in the list.
- Tested on: human renal cancer OS-RC-2 cells
- TEST PROTOCOL: Growth inhibition test on human renal cancer OS-RC-2 cells (WST-1, % viability)
- Assay type: cell-based
- APPLIED CONDITIONS: test compound 10 μmol/L, 72 hours, cells without test compound = 100%
- Description: One thousand cells of human renal cancer OS-RC-2 were inoculated into each well of a 96-well microplate (manufactured by Nunc Corp.), and using RPMI1640 medium (culture medium) containing 10% FCS, preculturing was performed in a 5% carbon dioxide incubator at 37° C. for 24 hours. […] Using a microplate spectrophotometer (Model 550; manufactured by Bio-Rad), the absorbance of each well was measured at 450 nm and 655 nm. […]
Numbers only, in %.

# annotated cases, reported Viability of tumor cells (% viability), Human renal cancer OS-RC-2 cells shown
LINE NOTATION: CCc1c(O)cc(O)c(C(=O)c2ccc(SC)cc2)c1CC(=O)N(CCO)CCOC
TARGET OR SYSTEM: human renal cancer OS-RC-2 cells
UNIT DESCRIPTOR: %
MEASURED RESULT: 18
//
LINE NOTATION: CCc1c(O)cc(O)c(C(=O)c2ccc(OC)cc2)c1CC(=O)N(CCO)Cc1ccco1
TARGET OR SYSTEM: human renal cancer OS-RC-2 cells
UNIT DESCRIPTOR: %
MEASURED RESULT: 16
//
LINE NOTATION: CCc1c(O)cc(O)c(C(=O)c2ccc(OC(C)C)cc2)c1CC(=O)N(CCOC)CCN1CCOCC1
TARGET OR SYSTEM: human renal cancer OS-RC-2 cells
UNIT DESCRIPTOR: %
MEASURED RESULT: 21
//
LINE NOTATION: CCc1c(O)cc(O)c(C(=O)c2ccc(O)c(OC)c2)c1CC(=O)N(CCOC)CCOC
TARGET OR SYSTEM: human renal cancer OS-RC-2 cells
UNIT DESCRIPTOR: %
MEASURED RESULT: 16
//
LINE NOTATION: CCc1c(O)cc(O)c(C(=O)c2ccc(OC)c(OC)c2)c1CC(=O)N1CCN(c2ccccc2)CC1
TARGET OR SYSTEM: human renal cancer OS-RC-2 cells
UNIT DESCRIPTOR: %
MEASURED RESULT: 18
//
LINE NOTATION: CCc1c(O)cc(O)c(C(=O)c2ccc(OCCN3CCOCC3)c(OC)c2)c1CC(=O)N(CCOC)CCOC.Cl
TARGET OR SYSTEM: human renal cancer OS-RC-2 cells
UNIT DESCRIPTOR: %
MEASURED RESULT: 21

Dear colleague, could you please provide Viability of tumor cells (% viability), Human renal cancer OS-RC-2 cells for the compounds listed below?
1. CCc1c(O)cc(O)c(C(=O)c2ccc(OC)cc2)c1CC(=O)N(C)Cc1cccnc1
2. CCc1c(O)cc(O)c(C(=O)c2ccc(OCCN3CCOCC3)c(OC)c2)c1CC(=O)N(CCOC)CCOC

A:
17
20
